Test system: kochia (Kochia scoparia)
Assay: Test B pre-/postemergence plant response
Type: in vivo
Details: Preemergence, 500 g ai/ha; 0 to 100 scale where 0 is no effect and 100 is complete control
Label Satisfied when Plant response rating, Kochia is strictly below 90; otherwise label Not satisfied.

Prompt line: API: query returns whether the molecule falls strictly under 90 in Plant response rating, Kochia. Query: FC(F)c1cc(-c2c(Cl)cccc2Oc2ncc(Cl)cn2)no1 [Compound 179]
Response line: Not satisfied

Prompt line: API: query returns whether the molecule falls strictly under 90 in Plant response rating, Kochia. Query: Cn1nnnc1-c1ccccc1Oc1ncc(Cl)cn1 [Compound 47]
Response line: Satisfied

Prompt line: API: query returns whether the molecule falls strictly under 90 in Plant response rating, Kochia. Query: FC(F)(F)c1ccnc(-c2c(Cl)cccc2Oc2ncc(Cl)cn2)c1 [Compound 159]
Response line: Satisfied

Prompt line: API: query returns whether the molecule falls strictly under 90 in Plant response rating, Kochia. Query: N#Cc1cccc(Oc2ncc(Cl)cn2)c1-c1cc(C(F)(F)F)on1 [Compound 157]
Response line: Not satisfied

Prompt line: API: query returns whether the molecule falls strictly under 90 in Plant response rating, Kochia. Query: Clc1cnc(Oc2ccccc2-c2cc(Cl)ncn2)nc1 [Compound 190]
Response line: Satisfied

Prompt line: API: query returns whether the molecule falls strictly under 90 in Plant response rating, Kochia. Query: Cn1nnc(-c2ccccc2Oc2ncc(Cl)cn2)n1 [Compound 48]
Response line: Satisfied

----------
Assignment: determine reported Plant response rating, Ryegrass, Italian for the given molecules.
Tested on: Italian ryegrass (Lolium multiflorum)
Assay: Test F pre-/postemergence plant response
Assay type: in vivo
Conditions: 125 g ai/ha Postemergence; scale 0 to 100
Field format: numeric only.

Prompt line: Consider the molecule Fc1ccc(Oc2ncc(Cl)cn2)c(-c2cc(C(F)(Cl)Cl)on2)c1 [Compound 221] and give its recorded Plant response rating, Ryegrass, Italian.
Response line: 5

Prompt line: Consider the molecule Cc1cc(-c2ccccc2Oc2ncc(Cl)cn2)on1 [Compound 58] and give its recorded Plant response rating, Ryegrass, Italian.
Response line: 0

Prompt line: Consider the molecule FC(F)c1cc(-c2ccccc2Oc2ncc(Br)cn2)on1 [Compound 212] and give its recorded Plant response rating, Ryegrass, Italian.
Response line: 0

Prompt line: Consider the molecule Fc1ccc(Oc2ncc(Cl)cn2)c(-c2cc(C(F)F)on2)c1Cl [Compound 96] and give its recorded Plant response rating, Ryegrass, Italian.
Response line: 10

----------
System: oilseed rape (Brassica napus)
Assay: Test D pre-/postemergence plant response
Type: in vivo
Conditions: Brassica napus, post-emergence; Postemergence, 31 g ai/ha; scale 0 to 100 (0 no effect, 100 complete control); read-out: Oilseed Rape plant response rating
assayReadout: plant injury at 31 g/ha (%)
// return numeric value only (unit: %, not printed)

Prompt line: Consider the molecule "Fc1cccc(Oc2ncc(Cl)cn2)c1-c1cc(C(F)(F)F)on1" and give its recorded plant injury at 31 g/ha.
Response line: 100

Prompt line: Consider the molecule "FC(F)c1cc(-c2ccccc2Oc2ncc(Cl)cn2)no1" and give its recorded plant injury at 31 g/ha.
Response line: 80

Prompt line: Consider the molecule "Fc1cccc(Oc2ncc(Cl)cn2)c1-c1cc(C(F)F)on1" and give its recorded plant injury at 31 g/ha.
Response line: 95

Prompt line: Consider the molecule "Fc1cccc(Oc2ncc(Br)cn2)c1-c1cc(C(F)F)no1" and give its recorded plant injury at 31 g/ha.
Response line: 70

----------
Assignment: determine reported pest or weed control at 62 g/ha for the given compounds.
Tested on: morningglory (Ipomoea coccinea)
Assay: Test D pre-/postemergence plant response
Assay type: in vivo
Details: Ipomoea, pre-emergence; Preemergence; 62 g ai/ha; scale 0 to 100 (0 no effect, 100 complete control); read-out: Plant response rating, Morningglory
// return numeric value only (unit: %, not printed)

Prompt line: Give reported pest or weed control at 62 g/ha for "Fc1cccc(Oc2ncc(Cl)cn2)c1-c1cc(C(F)F)on1" (morningglory (Ipomoea coccinea))
Response line: 100

Prompt line: Give reported pest or weed control at 62 g/ha for "FC(F)c1cc(-c2ccccc2Oc2ncc(Br)cn2)no1" (morningglory (Ipomoea coccinea))
Response line: 55

Prompt line: Give reported pest or weed control at 62 g/ha for "Fc1cccc(Oc2ncc(Cl)cn2)c1-c1cc(C(F)F)no1" (morningglory (Ipomoea coccinea))
Response line: 100

Prompt line: Give reported pest or weed control at 62 g/ha for "FCc1cc(-c2ccccc2Oc2ncc(Cl)cn2)no1" (morningglory (Ipomoea coccinea))
Response line: 0

----------
Test system: blackgrass (Alopecurus myosuroides)
Assay: Test D pre-/postemergence plant response
Type: in vivo
Conditions: Postemergence, 125 g ai/ha; scale 0 to 100, 0 no effect, 100 complete control
Label fulfilled when Plant response rating, Blackgrass is strictly below 30; otherwise label not fulfilled.

Prompt line: API: query returns whether the molecule falls strictly under 30 in Plant response rating, Blackgrass. Query: "CC(F)(F)c1cc(-c2ccccc2Oc2ncc(Cl)cn2)on1"
Response line: fulfilled

Prompt line: API: query returns whether the molecule falls strictly under 30 in Plant response rating, Blackgrass. Query: "Cc1cc(-c2c(F)cccc2Oc2ncc(Cl)cn2)on1"
Response line: fulfilled

Prompt line: API: query returns whether the molecule falls strictly under 30 in Plant response rating, Blackgrass. Query: "Fc1cccc(Oc2ncc(Br)cn2)c1-c1cc(C(F)F)on1"
Response line: not fulfilled

Prompt line: API: query returns whether the molecule falls strictly under 30 in Plant response rating, Blackgrass. Query: FC(Cl)c1cc(-c2ccccc2Oc2ncc(Cl)cn2)no1 (stereo not drawn)
Response line: not fulfilled

Prompt line: API: query returns whether the molecule falls strictly under 30 in Plant response rating, Blackgrass. Query: "FC(F)(F)c1cc(-c2c(Cl)cccc2Oc2ncc(Cl)cn2)no1"
Response line: fulfilled

Prompt line: API: query returns whether the molecule falls strictly under 30 in Plant response rating, Blackgrass. Query: "Cc1cc(-c2ccccc2Oc2ncc(Cl)cn2)on1"
Response line: fulfilled

Prompt line: API: query returns whether the molecule falls strictly under 30 in Plant response rating, Blackgrass. Query: "FC(F)c1cc(-c2c(Cl)cccc2Oc2ncc(Cl)cn2)on1"
Response line: not fulfilled

----------
Test system: velvetleaf (Abutilon theophrasti)
Assay: Test B pre-/postemergence plant response
Assay type: in vivo
Details: Postemergence, 1000 g ai/ha; 0 to 100 scale (0 no effect, 100 complete control)
Assignment: determine reported Plant response rating, Velvetleaf for the given compounds.

Prompt line: Consider the compound "FC(F)(F)Oc1cccc(-c2ccccc2Oc2ncc(Cl)cn2)c1" and give its recorded Plant response rating, Velvetleaf.
Response line: 100

Prompt line: Consider the compound "Clc1cnc(Oc2ccccc2-c2cscn2)nc1" and give its recorded Plant response rating, Velvetleaf.
Response line: 30

Prompt line: Consider the compound "CN(C)c1ccc(-c2ccccc2Oc2ncc(Cl)cn2)cn1" and give its recorded Plant response rating, Velvetleaf.
Response line: 50

Prompt line: Consider the compound "Brc1cnc(Oc2ccccc2-c2nnco2)nc1" and give its recorded Plant response rating, Velvetleaf.
Response line: 30

Prompt line: Consider the compound "Clc1cnc(Oc2ccccc2-c2cncs2)nc1" and give its recorded Plant response rating, Velvetleaf.
Response line: 40

----------
System: Italian ryegrass (Lolium multiflorum)
Test: Test B pre-/postemergence plant response
Format: in vivo
Details: Postemergence, 500 g ai/ha; 0 to 100 scale (0 no effect, 100 complete control)
// label = true (1) if Plant response rating, Ryegrass, Italian is not less than 60, otherwise false (0)

Prompt line: Hello, I need to know if "FC(F)(F)c1cc(-c2c(Cl)cccc2Oc2ncc(Cl)cn2)no1" has measured Plant response rating, Ryegrass, Italian not below 60. Thanks!
Response line: false (0)

Prompt line: Hello, I need to know if "Clc1cnc(Oc2ccccc2-c2ccc(Br)s2)nc1" has measured Plant response rating, Ryegrass, Italian not below 60. Thanks!
Response line: false (0)

Prompt line: Hello, I need to know if "Clc1cnc(Oc2ccccc2-c2cc(Cl)ncn2)nc1" has measured Plant response rating, Ryegrass, Italian not below 60. Thanks!
Response line: false (0)

Prompt line: Hello, I need to know if "Fc1cccc(Oc2ncc(Cl)cn2)c1-c1cc(C(F)(F)F)on1" has measured Plant response rating, Ryegrass, Italian not below 60. Thanks!
Response line: true (1)

Prompt line: Hello, I need to know if "FC(F)(F)c1cc(-c2c(I)cccc2Oc2ncc(Cl)cn2)no1" has measured Plant response rating, Ryegrass, Italian not below 60. Thanks!
Response line: true (1)

Prompt line: Hello, I need to know if "FC(F)(F)c1ccnc(-c2c(Cl)cccc2Oc2ncc(Cl)cn2)c1" has measured Plant response rating, Ryegrass, Italian not below 60. Thanks!
Response line: false (0)

Prompt line: Hello, I need to know if "FC(F)c1cc(-c2ccccc2Oc2ncc(Cl)cn2)on1" has measured Plant response rating, Ryegrass, Italian not below 60. Thanks!
Response line: true (1)

Prompt line: Hello, I need to know if "FC(F)(F)c1csc(-c2ccccc2Oc2ncc(Cl)cn2)n1" has measured Plant response rating, Ryegrass, Italian not below 60. Thanks!
Response line: false (0)
